System: P. aeruginosa 37
Experiment: In vitro antibacterial activity test (broth microdilution)
Type: cell-based
Settings: Pseudomonas aeruginosa, 37, P. aeruginosa 37
Quantity Kind: MIC90 (µg/mL)

Compound	Quantity Kind	Measurement
CC(C)(O/N=C(\C(=O)N[C@@H]1C(=O)N2C(C(=O)[O-])=C(C[n+]3cnc(N)c(NC(=O)CCN)c3)CSC12)c1csc(N)n1)C(=O)O (stereo partly shown)	MIC90	64
CC(C)(O/N=C(\C(=O)N[C@@H]1C(=O)N2C(C(=O)[O-])=C(/C=C/C[n+]3cnc(N)c(NC(=O)CCN)c3)CSC12)c1nsc(N)n1)C(=O)O (stereo partly shown)	MIC90	32
CC(C)(O/N=C(\C(=O)N[C@@H]1C(=O)N2C(C(=O)[O-])=C(/C=C/C[n+]3cnc(N)c(NC(=O)CN)c3N)CSC12)c1csc(N)n1)C(=O)O (stereo partly shown)	MIC90	32
CC(C)(O/N=C(\C(=O)N[C@@H]1C(=O)N2C(C(=O)[O-])=C(C[n+]3cnc(N)c(NCCN)c3)CSC12)c1csc(N)n1)C(=O)O (stereo partly shown)	MIC90	16
CC(C)(O/N=C(\C(=O)N[C@@H]1C(=O)N2C(C(=O)[O-])=C(/C=C/C[n+]3cnc(N)c(NC(=O)CCCN)c3N)CSC12)c1nc(N)sc1Cl)C(=O)O (stereo partly shown)	MIC90	16
CC(C)(O/N=C(\C(=O)N[C@@H]1C(=O)N2C(C(=O)[O-])=C(/C=C/C[n+]3cnc(N)c(NC(=O)CCN)c3)CSC12)c1csc(N)n1)C(=O)O (stereo partly shown)	MIC90	32
CNCCNc1c[n+](C/C=C/C2=C(C(=O)[O-])N3C(=O)[C@@H](NC(=O)/C(=N\OC(C)(C)C(=O)O)c4csc(N)n4)C3SC2)cnc1N (stereo partly shown)	MIC90	32

---

Tested on: E. coli AG100
Experiment: In vitro antibacterial activity test (broth microdilution)
Format: cell-based
Settings: Escherichia coli, AG100
Reported MIC90 by item:

Compound	Target Or System	Qualifying Sign	MIC90, µg/mL
CC(C)(O/N=C(\C(=O)N[C@@H]1C(=O)N2C(C(=O)[O-])=C(/C=C/C[n+]3cnc(N)c(NCCN)c3)CSC12)c1nsc(N)n1)C(=O)O (stereo partly shown)	E. coli AG100	<	0.0625
CC(C)(O/N=C(\C(=O)N[C@@H]1C(=O)N2C(C(=O)[O-])=C(C[n+]3cnc(NCCN)c(NCCNC(=O)c4cc(=O)c(O)cn4O)c3)CSC12)c1csc(N)n1)C(=O)O (stereo partly shown)	E. coli AG100	<	0.0625
CC(C)(O/N=C(\C(=O)N[C@@H]1C(=O)N2C(C(=O)[O-])=C(/C=C/C[n+]3cnc(N)c(NC(=O)CN)c3N)CSC12)c1csc(N)n1)C(=O)O (stereo partly shown)	E. coli AG100	=	0.25
CC(C)(O/N=C(\C(=O)N[C@@H]1C(=O)N2C(C(=O)[O-])=C(C[n+]3cnc(N)c(NC(=O)CCN)c3)CSC12)c1csc(N)n1)C(=O)O (stereo partly shown)	E. coli AG100	=	2
CNCCNc1c[n+](C/C=C/C2=C(C(=O)[O-])N3C(=O)[C@@H](NC(=O)/C(=N\OC(C)(C)C(=O)O)c4csc(N)n4)C3SC2)cnc1N (stereo partly shown)	E. coli AG100	=	0.125
CC(C)(O/N=C(\C(=O)N[C@@H]1C(=O)N2C(C(=O)[O-])=C(/C=C/C[n+]3cnc(N)c(NC(=O)CCCN)c3)CSC12)c1nsc(N)n1)C(=O)O (stereo partly shown)	E. coli AG100	<	0.0625
C[C@H](O/N=C(\C(=O)N[C@@H]1C(=O)N2C(C(=O)[O-])=C(/C=C/C[n+]3cnc(N)c(NCCN)c3)CSC12)c1csc(N)n1)C(=O)O (stereo partly shown)	E. coli AG100	<	0.0625

Every entry's value here was drawn from patent US9630977B2.
